Each record here notes measured pIC50.
target: Dual specificity protein kinase CLK1 (Homo sapiens, UniProt P49759); assay: Inhibition of GST-tagged human recombinant CLK1 expressed in Escherichia coli using RS peptide as substrate incubated for 30 mins in presence of [gamma-33 P] ATP by liquid scintillation counting analysis
Sequence (P49759 whole entry): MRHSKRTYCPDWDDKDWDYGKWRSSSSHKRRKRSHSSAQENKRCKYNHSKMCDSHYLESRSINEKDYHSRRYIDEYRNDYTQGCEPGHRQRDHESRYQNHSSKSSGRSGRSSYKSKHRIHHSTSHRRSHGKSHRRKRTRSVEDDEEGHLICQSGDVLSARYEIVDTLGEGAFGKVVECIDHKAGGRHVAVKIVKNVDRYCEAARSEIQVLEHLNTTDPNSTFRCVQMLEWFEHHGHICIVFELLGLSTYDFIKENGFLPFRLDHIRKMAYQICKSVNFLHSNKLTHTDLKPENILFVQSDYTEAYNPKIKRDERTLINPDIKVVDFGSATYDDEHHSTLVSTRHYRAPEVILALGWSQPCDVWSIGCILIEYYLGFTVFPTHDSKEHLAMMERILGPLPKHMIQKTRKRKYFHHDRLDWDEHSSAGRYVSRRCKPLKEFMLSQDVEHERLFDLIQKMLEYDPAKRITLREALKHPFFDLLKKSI
Recall that pIC50 is obtained by taking minus log10 of the concentration measured in molar.

Worked cases, pIC50 given:
INSERT INTO measurements (structure, assay_value) VALUES
  ('COc1ccc2c(c1)[nH]c1c3ccncc3cc(CN)c21', 6.08),
  ('COc1ccc2cc(-c3ccncc3)[nH]c2n1', 5.54),
  ('COc1ccc2[nH]c3c(=O)[nH]c(-c4cccnc4)c(C#N)c3c2c1', 7.33),
  ('COc1ccc2c(c1)[nH]c1c3ccncc3cc(C#N)c21', 7.64),
  ('COc1ccc2[nH]c3c4c(OC)cncc4cc(C#N)c3c2c1', 7.25);

Recorded pIC50 (molecule N#C/C(=C\c1cccnc1)c1c[nH]c2ncccc12 ): 7.80

Recorded pIC50 (molecule COc1ccc2c(/C(C#N)=C/c3cccnc3)c[nH]c2n1 ): 6.64

Recorded pIC50 (molecule COc1ccc2c(-c3ccncc3)c[nH]c2n1 ): 6.37

Recorded pIC50 (molecule COc1cncc(/C=C(\C#N)c2c[nH]c3ccc(OC)cc23)c1 ): 5.64

----------
// Cyclin-dependent kinase 5/CDK5 activator 1 (Homo sapiens, UniProt Q00535) pIC50 records
Recall that pIC50 is obtained by taking minus log10 of the concentration measured in molar.

Worked cases, pIC50 given:
INSERT INTO assay_data (compound, value_kind, assay_value) VALUES
  ('COc1ccc2[nH]cc3c2c1C(C)NC(c1cccnc1)=C3C#N (stereo not drawn)', 'pIC50', 5.19),
  ('COc1ccc2c(c1)[nH]c1c3ccncc3cc(CN(C)C)c21', 'pIC50', 5.27),
  ('COc1ccc2c(c1)[nH]c1c3ccncc3cc(CN)c21', 'pIC50', 5.25),
  ('COc1ccc2[nH]c3c4c(OC)cncc4cc(C#N)c3c2c1', 'pIC50', 6.03),
  ('COc1cccc2c1[nH]c1c3ccncc3cc(C(N)=O)c21', 'pIC50', 5.05);

Recorded pIC50 (compound COc1cccc2c1[nH]c1c3ccncc3cc(C#N)c21 ): 6.34

Recorded pIC50 (compound N#Cc1cc2cnccc2c2[nH]c3ccccc3c12 ): 6.10

Recorded pIC50 (compound COc1ccc2c(c1)[nH]c1c3ccncc3cc(CNC(C)=O)c21 ): 5.22

----------
Each record here notes measured IC50.
target: Dual specificity protein kinase CLK3 (Homo sapiens); test: Inhibition of GST-tagged human recombinant CLK3 expressed in Escherichia coli using RS peptide as substrate incubated for 30 mins in presence of [gamma-33 P] ATP by liquid scintillation counting analysis
Sequence (P49761 whole entry): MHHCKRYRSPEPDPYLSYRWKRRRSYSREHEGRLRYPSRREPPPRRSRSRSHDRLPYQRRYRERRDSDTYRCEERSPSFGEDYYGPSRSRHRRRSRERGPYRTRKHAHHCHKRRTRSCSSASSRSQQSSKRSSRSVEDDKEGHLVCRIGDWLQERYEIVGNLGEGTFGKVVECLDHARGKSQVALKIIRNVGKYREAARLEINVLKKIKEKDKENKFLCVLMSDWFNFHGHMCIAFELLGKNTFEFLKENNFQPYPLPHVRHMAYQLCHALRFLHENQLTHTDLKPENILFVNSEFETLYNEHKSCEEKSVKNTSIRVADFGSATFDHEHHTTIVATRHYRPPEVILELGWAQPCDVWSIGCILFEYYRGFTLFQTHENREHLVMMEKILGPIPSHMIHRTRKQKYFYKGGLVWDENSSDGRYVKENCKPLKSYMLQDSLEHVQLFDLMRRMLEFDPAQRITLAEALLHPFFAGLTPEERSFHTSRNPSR

Worked cases, IC50 given:
INSERT INTO assay_data (structure, assay_value) VALUES
  ('COc1cccc2[nH]c3c4ccncc4cc(C#N)c3c12', '> 10 µM'),
  ('COc1ccc2[nH]c3c(=O)[nH]c(-c4cccnc4)c(C#N)c3c2c1', '> 10 µM');

# input for lookup
Recorded IC50 (molecule COc1ccc2c(/C(C#N)=C/c3cccnc3)c[nH]c2n1 ): > 10 µM

----------
Each record here notes measured pIC50.
target: Dual specificity tyrosine-phosphorylation-regulated kinase 1A (Homo sapiens); assay: Inhibition of GST-tagged human recombinant DYRK1A expressed in Escherichia coli using RS peptide as substrate incubated for 30 mins in presence of [gamma-33 P] ATP by liquid scintillation counting analysis
pIC50: −log10 of the molar value.

Worked cases, pIC50 given:
INSERT INTO measurements (structure, assay_value) VALUES
  ('N#Cc1cc2cccnc2c2[nH]c3ccccc3c12', '< 5.00'),
  ('N#Cc1cc2ccccn2c2nc3ccccc3c1-2', '< 5.00');

# input for lookup
Recorded pIC50 (molecule N#C/C(=C/c1cccnc1)c1c[nH]c2ccccc12 ): < 5.00

----------
assay: Cytotoxicity against human KB cells assessed as growth inhibition at 1 uM after 72 hrs by MTS assay; format: toxicity, cell-based; settings: KB cells, read-out: GI
Rule: inhibition at 72 h, 1 µM of 20% or more gives 1; anything lower gives -1.

Solved cases below.
INSERT INTO assay_data (structure, cat) VALUES
  ('COc1cccc2c1[nH]c1c3ccncc3cc(C#N)c21', -1),
  ('COc1ccc2c(c1)[nH]c1c3ccncc3cc(CN(C)C)c21', 1),
  ('COc1ccc2c(c1)[nH]c1c3ccncc3cc(CNC(C)=O)c21', -1),
  ('N#Cc1cc2ccncc2c2[nH]c3ccccc3c12', -1);

Let us examine a further case.
Is the recorded value of inhibition at 72 h, 1 µM equal to or greater than 20% for this compound? COc1ccc2c(c1)[nH]c1c3ccncc3cc(CN)c21
1

----------
Each record here notes measured IC50.
biological target: Dual specificity protein kinase CLK3 (Homo sapiens); assay: Inhibition of GST-tagged human recombinant CLK3 expressed in Escherichia coli using RS peptide as substrate incubated for 30 mins in presence of [gamma-33 P] ATP by liquid scintillation counting analysis

INSERT INTO results (structure, value_kind, assay_value) VALUES
  ('N#Cc1cc2cnccc2c2[nH]c3ccc(F)cc3c12', 'IC50', '> 10 µM'),
  ('COc1ccc2c(n1)[nH]c1c3ccncc3cc(C#N)c21', 'IC50', '> 10 µM');

# input for lookup
Recorded IC50 (molecule N#C/C(=C\c1cccnc1)c1c[nH]c2ncccc12 ): > 10 µM

----------
molecular target: Dual specificity protein kinase CLK1 (Homo sapiens, UniProt P49759); test: Inhibition of GST-tagged human recombinant CLK1 expressed in Escherichia coli using RS peptide as substrate incubated for 30 mins in presence of [gamma-33 P] ATP by liquid scintillation counting analysis
pIC50: −log10 of the molar value.
Classes based on pIC50: bottom (below 6), middle (6 to below 7), top (7 or more)

Solved cases below.
INSERT INTO measurements (compound, cat) VALUES
  ('N#Cc1cc2ncccc2c2[nH]c3ccccc3c12', 'bottom'),
  ('COc1ccc2c(c1)[nH]c1c3ccncc3cc(CNC(C)=O)c21', 'bottom'),
  ('N#C/C(=C/c1cccnc1)c1c[nH]c2ccccc12', 'bottom'),
  ('COc1ccc2[nH]cc3c2c1C(C)NC(c1cccnc1)=C3C#N (stereo not given)', 'bottom'),
  ('COc1cccc2c1[nH]c1c3ccncc3cc(C(N)=O)c21', 'middle'),
  ('COc1ccc2[nH]cc(-c3cc4cnccc4cc3NC(C)=O)c2c1', 'top'),
  ('COc1ccc2[nH]cc(/C(C#N)=C(\N)c3cccnc3)c2c1', 'bottom'),
  ('N#Cc1cc2ccccn2c2nc3ccccc3c1-2', 'bottom');

// return the class label for COc1ccc2c(c1)[nH]c1c3ccncc3cc(C(N)=O)c21
bottom

----------
target: UniProt P49759; assay: Inhibition of GST-tagged human recombinant CLK1 expressed in Escherichia coli using RS peptide as substrate incubated for 30 mins in presence of [gamma-33 P] ATP by liquid scintillation counting analysis
Each record here notes measured pIC50.
Recall that pIC50 is obtained by taking minus log10 of the concentration measured in molar.

Worked cases, pIC50 given:
INSERT INTO assay_data (structure, assay_value) VALUES
  ('COc1ccc2c(n1)[nH]c1c3ccncc3cc(C#N)c21', 7.07),
  ('COc1cccc2c(/C(C#N)=C/c3cccnc3)c[nH]c12', 5.82),
  ('COc1ccc2c(c1)[nH]c1c3ccncc3cc(CN(C)C)c21', 5.85),
  ('N#Cc1cc2ccccc2c2[nH]c3ccccc3c12', 5.85),
  ('COc1cccc2[nH]c3c4ccncc4cc(C#N)c3c12', 6.21);

Recorded pIC50 (molecule N#Cc1cc2ccncc2c2[nH]c3ccccc3c12 ): 6.77

Recorded pIC50 (molecule COc1ccc2c(c1)[nH]c1c3c(OC)cncc3cc(C#N)c21 ): 7.64

----------
Each record here notes measured pIC50.
biological target: UniProt P49759; assay: Inhibition of GST-tagged human recombinant CLK1 expressed in Escherichia coli using RS peptide as substrate incubated for 30 mins in presence of [gamma-33 P] ATP by liquid scintillation counting analysis
Recall that pIC50 is obtained by taking minus log10 of the concentration measured in molar.

Worked cases, pIC50 given:
INSERT INTO measurements (structure, value_kind, assay_value) VALUES
  ('COc1ccc2[nH]c3c4ccncc4cc(C#N)c3c2c1', 'pIC50', 7.29),
  ('COc1cccc2[nH]cc(/C(C#N)=C/c3cccnc3)c12', 'pIC50', 5.52);

# input for lookup
UniProt P49759 pIC50 of COc1ccc2c(c1)[nH]c1c3c(OC)cncc3cc(C(N)=O)c21 is 5.80
